Source of measurements: the supplement of paper PMC12669032

Tested on: Escherichia coli IAI1
Experiment Notes: growth AUC relative to DMSO control (median of replicates) (fraction); higher = more growth (less inhibition), active = hit call of the paper
Condition Details: 20 µM; 24 h
Please enter 1.0 where growth AUC is greater than or equal to 1, and 0.0 where it is lower.

Task item: API: above_or_equal(metric=growth AUC, cutoff=1) for item CCCCC(C#N)(Cn1cncn1)c1ccc(Cl)cc1 (stereo unspecified)
Reply: 0.0

Task item: Determine whether measured growth AUC meets or exceeds 1 for "CCCOC(=O)c1ccccc1C(=O)OCCC"
Reply: 1.0

---

Tested on: Fusobacterium nucleatum subsp. animalis
Experiment Notes: growth AUC relative to DMSO control (median of replicates) (fraction); higher = more growth (less inhibition), active = hit call of the paper
Condition Details: 20 µM; 24 h
Experimental Endpoint: growth AUC

Task item: Can you look up growth AUC on Fusobacterium nucleatum subsp. animalis for "COCC(=O)N(c1c(C)cccc1C)N1CCOC1=O" ?
Reply: 0.882 (inactive)

Task item: Hello, I am looking for reported growth AUC with Fusobacterium nucleatum subsp. animalis for "CN(C)C(CSS(=O)(=O)c1ccccc1)CSS(=O)(=O)c1ccccc1" . Could you help?
Reply: 0.932 (inactive)

Task item: Kindly state the measured growth AUC obtained for "O=C(NC(=O)c1c(F)cccc1F)Nc1ccc(Oc2ccc(C(F)(F)F)cc2Cl)cc1F" with Fusobacterium nucleatum subsp. animalis.
Reply: 0.951 (inactive)

Task item: Under Fusobacterium nucleatum subsp. animalis: growth AUC value of "CCOP(=S)(OCC)SCn1nnc2ccccc2c1=O" ?
Reply: 1.09 (inactive)

Task item: Value wanted: growth AUC (Fusobacterium nucleatum subsp. animalis) of entry COP(N)(=S)Oc1ccccc1C(=O)OC(C)C (stereo not given)
Reply: 0.97 (inactive)

Task item: Record "O=[N+]([O-])c1cc(Cl)ccc1Cl" : what is its growth AUC with Fusobacterium nucleatum subsp. animalis?
Reply: 1.04 (inactive)

Task item: Find the measured growth AUC: item C=CCOC(Cn1ccnc1)c1ccc(Cl)cc1Cl.O=S(=O)(O)O (stereo not given) , target or system Fusobacterium nucleatum subsp. animalis.
Reply: 0.925 (inactive)

Task item: Give growth AUC (Fusobacterium nucleatum subsp. animalis) of the following compound: "CCOP(=S)(OCC)Oc1cnc2ccccc2n1"
Reply: 0.995 (inactive)

Task item: Checklist item: growth AUC tested on Fusobacterium nucleatum subsp. animalis, entry COP(=S)(NC(C)C)Oc1ccc(C)cc1[N+](=O)[O-] (stereo not given) , value?
Reply: 1.06 (inactive)

Task item: # value lookup — system Fusobacterium nucleatum subsp. animalis, readout growth AUC, item CC(C)[C@@H](Nc1ccc(C(F)(F)F)cc1Cl)C(=O)OC(C#N)c1cccc(Oc2ccccc2)c1 (stereo not given in full)
Reply: 1.06 (inactive)

---

Tested on: Clostridium difficile
Experiment Notes: growth AUC relative to DMSO control (median of replicates) (fraction); higher = more growth (less inhibition), active = hit call of the paper
Condition Details: 20 µM; 24 h
Consider the following compounds; for each one, report its growth AUC.

Task item: What growth AUC value was documented for this compound, "Clc1cc(Cl)nc(-c2ccccc2)n1" ?
Reply: 0.956 (inactive)

Task item: Any idea what its growth AUC is? The compound is "COS(=O)(=O)[O-].Cn1c(-c2ccccc2)cc(-c2ccccc2)[n+]1C"
Reply: 1.04 (inactive)

Task item: Need growth AUC of "O=P(O)(O)CCCl" , thanks.
Reply: 0.959 (inactive)

Task item: What value of growth AUC has been reported for the following compound? "CC(C)N(C)S(=O)(=O)NC(=O)c1cc(-n2c(=O)cc(C(F)(F)F)n(C)c2=O)c(F)cc1Cl"
Reply: 0.976 (inactive)

Task item: Would you mind telling me what growth AUC value was observed for "COP(=S)(OC)Oc1cc(Cl)c(I)cc1Cl" ?
Reply: 0.937 (inactive)

Task item: Name the recorded growth AUC for ClC1=C(Cl)C2(Cl)[C@H]3[C@H]4O[C@H]4[C@H](Cl)[C@H]3C1(Cl)C2(Cl)Cl (single isomer, unassigned; isomer a) .
Reply: 0.998 (inactive)

Task item: Can you look up the measured growth AUC of "CCCCCCCCn1sccc1=O" for me?
Reply: 0.848 (inactive)

Task item: I'd like to know its growth AUC. The compound in question is "CCOP(=S)(OCC)SCS(=O)(=O)CC"
Reply: 1.01 (inactive)

Task item: Which growth AUC is reported for this compound? CNC(=O)O/N=C(\C)C(C)S(C)=O (stereo unspecified)
Reply: 1 (inactive)

Task item: Entry CCNc1nc(NC(C)C(C)C)nc(SC)n1 (stereo unspecified) : reported growth AUC = ?
Reply: 1 (inactive)

Task item: Please give the measured growth AUC for this compound: "c1cc2ccc3cccc4ccc(c1)c2c34"
Reply: 0.959 (inactive)

---

What growth AUC was measured for each of the following?
Test system: Escherichia coli ED1a
Experiment Notes: growth AUC relative to DMSO control (median of replicates) (fraction); higher = more growth (less inhibition), active = hit call of the paper
Condition Details: 20 µM; 24 h
Answer field: number only, no words.

Task item: What value of growth AUC has been recorded for this entry: "Clc1ccc(Cl)cc1"
Reply: 1

Task item: I would be grateful if you could share the reported growth AUC for "Cc1cc(Cl)ccc1O" .
Reply: 1

Task item: Could you tell me which growth AUC is on file for "O=C(O)c1ccc(=O)[nH]c1" ?
Reply: 0.99

Task item: Which growth AUC value is on record for "CCS(=O)(=O)Oc1ccc2c(c1)C(C)(C)CO2" ?
Reply: 1.02

Task item: GET /values?readout=growth AUC&item= "CCN(CC)c1nc(C)cc(OP(=S)(OC)OC)n1"
Reply: 1.03

Task item: Which growth AUC value is on record for "CC(=NCc1ccc(Cl)nc1)NC#N" ?
Reply: 1.02

Task item: Fill blank: measured growth AUC of the compound CC(C)C(C(=O)OC(C#N)c1cccc(Oc2ccccc2)c1)c1ccc(Cl)cc1 (configuration not stated) is ____.
Reply: 1.01

---

Can you tell me growth AUC for the items I'm about to list?
Test system: Bacteroides uniformis
Experiment Notes: growth AUC relative to DMSO control (median of replicates) (fraction); higher = more growth (less inhibition), active = hit call of the paper
Condition Details: 20 µM; 24 h

Task item: # get_value(readout='growth AUC', item= "CCCCNC(=O)n1c(NC(=O)OC)nc2ccccc21" )
Reply: 1.02 (inactive)

Task item: I am curious: what growth AUC value has been reported for CC(C)C(C(=O)OC(C#N)c1cccc(Oc2ccccc2)c1)c1ccc(Cl)cc1 (centres undefined) ?
Reply: 0.986 (inactive)

Task item: Requested read-out: growth AUC. Entry: O=S1OCC2C(CO1)C1(Cl)C(Cl)=C(Cl)C2(Cl)C1(Cl)Cl (centres undefined)
Reply: 0.874 (inactive)

Task item: Need growth AUC of "CC(C)OP(=O)(OC(C)C)SCc1ccccc1" , thanks.
Reply: 0.968 (inactive)

Task item: Entry CNC(=O)Oc1cccc2c1OC(C)(C)C2O (centres undefined) has what growth AUC?
Reply: 0.998 (inactive)

Task item: Record request: growth AUC value, item "CNC(=O)/C=C(\C)OP(=O)(OC)OC"
Reply: 1.01 (inactive)

Task item: Recorded growth AUC of CCN(CC)C(=O)C(C)Oc1cccc2ccccc12 (centres undefined) , please.
Reply: 0.958 (inactive)

Task item: // growth AUC lookup, key: COP(=S)(OC)Oc1ccc(S(C)=O)c(C)c1 (centres undefined)
Reply: 1.03 (inactive)

Task item: # query: growth AUC of entry "COc1cc(OC)nc(Oc2cccc(Oc3nc(OC)cc(OC)n3)c2C(=O)[O-])n1.[Na+]"
Reply: 1 (inactive)

Task item: I'd like to know its growth AUC. The compound in question is "Oc1c(Cl)c(Cl)cc(Cl)c1Cl"
Reply: 0.636 (active)

Task item: Which value of growth AUC has been reported for "CCOc1ccc(C(C)(C)COCc2cccc(Oc3ccccc3)c2)cc1" in the records?
Reply: 1.05 (inactive)

Task item: If you can, please state the reported growth AUC value of "Nc1nc(N)nc(Cl)n1" .
Reply: 1.02 (inactive)

Task item: Can you look up the measured growth AUC of CCNc1nc(NC(C)C(C)C)nc(SC)n1 (centres undefined) for me?
Reply: 0.972 (inactive)

Task item: growth AUC for "N#Cc1cc(Br)c(O)c(Br)c1" ?
Reply: 0.988 (inactive)

Task item: Quick one: growth AUC for "COc1ccc(/C(=C/C(=O)N2CCOCC2)c2ccc(Cl)cc2)cc1OC" ?
Reply: 0.954 (inactive)

Task item: Name the recorded growth AUC for "Cc1cccc(C)c1N(Cn1cccn1)C(=O)CCl" .
Reply: 0.969 (inactive)

Task item: Item under review: CCCN(CC)CC1COC2(CCC(C(C)(C)C)CC2)O1 (centres undefined) . Reported growth AUC?
Reply: 1.04 (inactive)

Task item: Find the recorded growth AUC belonging to CC(C)C1(C)N=C(c2nc3ccccc3cc2C(=O)O)NC1=O (centres undefined) and report it.
Reply: 1.01 (inactive)

Task item: I have this compound here, CC1CNC(=S)N1 (centres undefined) , and I need its recorded growth AUC.
Reply: 1 (inactive)

Task item: Request the reported growth AUC associated with "COP(=S)(OC)Oc1ccc(C#N)cc1"
Reply: 1.04 (inactive)

Task item: // growth AUC lookup, key: "CCCCCCCCSC(=O)Oc1cc(Cl)nnc1-c1ccccc1"
Reply: 0.91 (inactive)

Task item: Would you kindly share the measured growth AUC for "CCOP(=O)(OCC)O/C(=C/Br)c1ccc(Cl)cc1Cl" ?
Reply: 0.821 (inactive)

Task item: Given "CCOCCN(C(=O)CCl)C(=C(C)C)c1ccccc1" , state its recorded growth AUC.
Reply: 0.944 (inactive)

Task item: # query: growth AUC of entry OC(Cc1ccccc1Cl)(Cn1cncn1)C1(Cl)CC1 (centres undefined)
Reply: 0.971 (inactive)

Task item: Can you look up the measured growth AUC of "COP(=S)(OC)Oc1ccc([N+](=O)[O-])c(Cl)c1" for me?
Reply: 0.943 (inactive)

Task item: // query growth AUC value for entry O=C1OCC2C1C1(Cl)C(Cl)=C(Cl)C2(Cl)C1(Cl)Cl (centres undefined)
Reply: 1.01 (inactive)

Task item: Please give the measured growth AUC for this compound: N#CC(CCc1ccc(Cl)cc1)(Cn1cncn1)c1ccccc1 (centres undefined)
Reply: 0.873 (inactive)

Task item: What value of growth AUC has been recorded for this entry: "CCC(C)(c1ccc(O)cc1)c1ccc(O)cc1"
Reply: 0.991 (inactive)

Task item: Fill in: growth AUC of CCc1cnc(C2=NC(C)(C(C)C)C(=O)N2)c(C(=O)O)c1 (centres undefined) is ___
Reply: 1.01 (inactive)

Task item: Quick one: growth AUC of "O=[N+]([O-])c1ccc(Oc2ccc(C(F)(F)F)cc2[N+](=O)[O-])cc1" ?
Reply: 0.917 (inactive)

Task item: # lookup: growth AUC of "O=C1C=C(N(Cc2ccc(Cl)nc2)CC(F)F)CO1"
Reply: 0.997 (inactive)

Task item: Find the recorded growth AUC belonging to Clc1ccc(C2(Cn3cncn3)CC(Br)CO2)c(Cl)c1 (centres undefined) and report it.
Reply: 0.944 (inactive)

Task item: // returns reported growth AUC for input COP(N)(=O)SC (centres undefined)
Reply: 1.03 (inactive)

Task item: Which growth AUC is listed for "CCOP(=S)(OCC)SCCS(=O)(=O)CC" ?
Reply: 0.986 (inactive)

Task item: # query: growth AUC of entry "CN/C(=N\[N+](=O)[O-])NCc1cnc(Cl)s1"
Reply: 1 (inactive)

Task item: Any idea what its growth AUC is? The compound is "Oc1ccc(-c2ccccc2)cc1"
Reply: 0.957 (inactive)

Task item: Quick one: growth AUC for C#CCOc1ccc(CCNC(=O)C(OCC#C)c2ccc(Cl)cc2)cc1OC (centres undefined) ?
Reply: 0.901 (inactive)

Task item: Request the reported growth AUC associated with FC(F)C(F)(F)OCC(Cn1cncn1)c1ccc(Cl)cc1Cl (centres undefined)
Reply: 0.957 (inactive)

Task item: Could you share which growth AUC value was measured for "CCOC(=O)Nc1cccc(OC(=O)Nc2ccccc2)c1" ?
Reply: 0.95 (inactive)

Task item: Consider the compound shown here: "Clc1cc(Cl)c(Cl)c(Cl)c1" What is its recorded growth AUC?
Reply: 1.02 (inactive)

Task item: Quick one: growth AUC of "COP(=S)(OC)Oc1ccc([N+](=O)[O-])cc1" ?
Reply: 0.96 (inactive)

Task item: Find the recorded growth AUC belonging to "N#Cc1sc2c(=O)c3ccccc3c(=O)c=2sc1C#N" and report it.
Reply: 0.882 (inactive)

Task item: Which value of growth AUC has been reported for "CCOP(=S)(OCC)SCS(=O)(=O)C(C)(C)C" in the records?
Reply: 1.01 (inactive)

Task item: growth AUC lookup needed for "C1CCC(NC2CCCCC2)CC1.O=NO" , thanks.
Reply: 0.943 (inactive)

Task item: Need growth AUC, item "O=C(O)c1ccccc1C(=O)Nc1cccc2ccccc12"
Reply: 0.993 (inactive)

Task item: Recorded growth AUC for CC1(C)CC/C(=C\c2ccc(Cl)cc2)C1(O)Cn1cncn1 (centres undefined) , please?
Reply: 0.995 (inactive)

Task item: For the compound "BrCCBr" , what growth AUC is on record?
Reply: 1 (inactive)

Task item: Using the record for "CCOP(=O)(Sc1ccccc1)Sc1ccccc1" , report its growth AUC.
Reply: 0.881 (inactive)

Task item: Which measured growth AUC value corresponds to CCNP(=S)(OC)O/C(C)=C/C(=O)OC(C)C (centres undefined) ?
Reply: 0.993 (inactive)
